- test.system: T1, huIL-17RA-FLAG-polyHis (human, UniProt Q96F46 33-320)
- T1 construct: also called IL-17RA-FLAG-pHis; wild-type IL-17RA
- assay.notes: binning; IL-17RA held by bead mAb O
Please enter Criterion met where normalized MFI is greater than or equal to 4000, and Criterion not met where it is lower.

binder	label
AMH10/AML10 (antibody, IgG2, V domains shown, human mAb from IgG2 XenoMouse mice; also called AM-10; antibody F) VH: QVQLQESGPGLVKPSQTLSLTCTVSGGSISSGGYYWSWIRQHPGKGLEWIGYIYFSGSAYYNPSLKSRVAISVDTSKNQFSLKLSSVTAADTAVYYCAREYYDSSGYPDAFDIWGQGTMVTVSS VL: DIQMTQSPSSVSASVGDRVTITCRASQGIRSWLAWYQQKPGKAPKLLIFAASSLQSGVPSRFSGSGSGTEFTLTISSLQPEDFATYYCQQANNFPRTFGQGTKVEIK	Criterion not met
AMH20/AML20 (antibody, IgG2, V domains shown, human mAb from IgG2 XenoMouse mice; also called AM-20; antibody R) VH: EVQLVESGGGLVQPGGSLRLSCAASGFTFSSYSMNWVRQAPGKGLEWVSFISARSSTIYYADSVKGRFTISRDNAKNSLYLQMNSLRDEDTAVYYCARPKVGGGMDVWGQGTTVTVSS VL: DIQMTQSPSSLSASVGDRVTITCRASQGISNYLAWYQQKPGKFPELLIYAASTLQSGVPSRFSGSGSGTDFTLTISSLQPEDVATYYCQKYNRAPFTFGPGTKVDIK	Criterion not met
AMH11/AML11 (antibody, IgG2, V domains shown, human mAb from IgG2 XenoMouse mice; also called AM-11; antibody A) VH: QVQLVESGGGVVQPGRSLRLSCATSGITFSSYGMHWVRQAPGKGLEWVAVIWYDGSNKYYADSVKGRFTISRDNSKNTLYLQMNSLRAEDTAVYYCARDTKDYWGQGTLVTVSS VL: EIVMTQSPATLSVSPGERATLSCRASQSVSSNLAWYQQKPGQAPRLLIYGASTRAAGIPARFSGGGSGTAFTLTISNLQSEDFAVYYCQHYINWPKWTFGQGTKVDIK	Criterion not met
AMH8/AML8 (antibody, IgG2, V domains shown, human mAb from IgG2 XenoMouse mice; also called AM-8; antibody C) VH: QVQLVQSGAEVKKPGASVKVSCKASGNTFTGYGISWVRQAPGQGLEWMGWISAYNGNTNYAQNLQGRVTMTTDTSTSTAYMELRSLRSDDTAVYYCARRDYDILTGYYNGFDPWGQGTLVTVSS VL: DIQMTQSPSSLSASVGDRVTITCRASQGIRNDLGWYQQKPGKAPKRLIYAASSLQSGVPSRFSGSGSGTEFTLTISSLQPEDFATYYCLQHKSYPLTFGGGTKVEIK	Criterion met

For the next question, use this binder.
Decide: is the reported value of normalized MFI for AMH21/AML21 (antibody, IgG2, V domains shown, human mAb from IgG2 XenoMouse mice; also called AM-21; antibody Q) VH: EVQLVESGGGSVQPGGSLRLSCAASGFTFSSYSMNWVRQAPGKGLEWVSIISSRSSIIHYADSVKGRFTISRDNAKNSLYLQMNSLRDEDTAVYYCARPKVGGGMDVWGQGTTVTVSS VL: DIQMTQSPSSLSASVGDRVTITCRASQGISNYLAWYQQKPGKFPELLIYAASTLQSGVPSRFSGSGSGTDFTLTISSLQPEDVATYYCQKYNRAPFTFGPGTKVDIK equal to or greater than 4000? Criterion not met

# credit: patent US20120251547A1
